Residues, ends and D or L forms follow the SMILES beside them.
What follows is a record of pIC50 for angiotensin converting enzyme (ACE) (Oryctolagus cuniculus, UniProt P12822).
Note: pIC50 values are expressed as the negative base-10 logarithm of concentration in M.

Briefly, pIC50 measured for NCCCC[C@H](NC(=O)[C@@H]1CCCN1C(=O)[C@H](CCC(=O)O)NC(=O)[C@@H](N)CO)C(=O)O [SEQ ID NO: 3] (H-SEPK-OH; N-terminus and C-terminus assumed) : 3.45

Briefly, pIC50 measured for NCCCC[C@H](NC(=O)[C@@H]1CCCN1C(=O)[C@@H](N)CCC(=O)O)C(=O)O [SEQ ID NO: 9] (H-Glu-Pro-Lys-OH; N-terminus and C-terminus assumed) : 3.44

Briefly, pIC50 measured for CC(C)C[C@H](N)C(=O)N1CCC[C@H]1C(=O)N[C@@H](CCC(=O)O)C(=O)O [SEQ ID NO: 8] (H-Leu-Pro-Glu-OH; N-terminus and C-terminus assumed) : 3.47

Briefly, pIC50 measured for CC(C)C[C@H](NC(=O)[C@@H](N)CO)C(=O)N1CCC[C@H]1C(=O)N[C@@H](CCC(=O)O)C(=O)O [SEQ ID NO: 2] (H-SLPE-OH; N-terminus and C-terminus assumed) : 3.48

###

- Method Notes: Bioavailability: peptide amount in plasma after oral administration to mice
- Format: in vivo
- Measurement Parameters: mouse, 500 ug, Balb/C mice, 500 μg each orally, two hours after administration, HPLC-MS
Residues, ends and D or L forms follow the SMILES beside them.
Assay Readout: level at 2 h (ng/mL)
The figure you give is taken to be in ng/mL; do not add the unit.

Briefly, level at 2 h measured for NCCCC[C@H](NC(=O)[C@@H]1CCCN1C(=O)[C@H](CCC(=O)O)NC(=O)[C@@H](N)CO)C(=O)O [SEQ ID NO: 3] (H-SEPK-OH; N-terminus and C-terminus assumed) : 900

Briefly, level at 2 h measured for CC(C)C[C@H](NC(=O)[C@@H](N)CO)C(=O)N1CCC[C@H]1C(=O)N[C@@H](CCC(=O)O)C(=O)O [SEQ ID NO: 2] (H-SLPE-OH; N-terminus and C-terminus assumed) : 1200
